# System: P. falciparum stage V gametocytes
# Design: BacTiter-Glo ATP luminescence viability of purified stage V gametocytes in 384-well plates, per cent inhibition versus DMSO
# conditions: 48 h, 5 µM; inhibitor
The campaign covered roughly 13,000 compounds. About 3,200 (25%) showed an effect of 50% or more. The list shows a part of the results.
measure: % Inhibition (%)
Output spec: scalar in %, unitless text.

| structureSmilesString | measure | value |
| --- | --- | --- |
| O=S(=O)(c1ccc(OCc2ccc(Cl)cc2)cc1)c1cc2c(cc1OCc1ccccc1)CCN(C1CCC1)CC2 | % Inhibition | 60.24 |

In: Any idea what its % Inhibition is? The compound is O=S(=O)(c1ccc(OCc2ccc(Cl)cc2)cc1)c1cc2c(cc1O)CCN(C1CCC1)CC2
Out: 28.22

In: What do we get for O=S(=O)(c1ccc(OCc2ccc(Cl)cc2)cc1)c1cc2c(c(-c3ccc(F)cc3)c1)CCN(CC1CC1)CC2 ?
Out: 93.21

In: What do we get for CC(=O)Nc1ccc(C(=O)Nc2ccc(-c3csc(-c4nc5ccccc5[nH]4)c3)cc2)cn1 ?
Out: 4.532

###

% Inhibition reference
# Tested on: P. falciparum stage V gametocytes
# Parameters: BacTiter-Glo ATP luminescence viability of purified stage V gametocytes in 384-well plates, per cent inhibition versus DMSO
# conditions: 48 h, 5 µM; inhibitor
Out of some 13,000 compounds screened, about 3,200 (25%) showed an effect of 50% or more. The list shows a part of the results.
Output spec: scalar in %, unitless text.

For orientation, consider the following solved cases.
| structureSmilesString | % Inhibition / % |
| --- | --- |
| Cc1cc(N(CCN2CCCCC2)CCN2CCCCC2)nc(Nc2ccc(Cl)cc2)n1 | 37.36 |
| COc1ccc(-c2ccc(CNCc3ccsc3)cc2)cc1S(=O)(=O)NCCN1CCCC1 | 107.3 |
| COc1ccc(CNCc2ccsc2)cc1-c1ccc(S(=O)(=O)NCCN2CCCC2)c(C)c1 | 105.9 |

In: Any idea what its % Inhibition is? The molecule is Cc1cccc(OCCCCON2C(N)=NC(N)=NC2(C)C)c1C
Out: 9.727

###

% Inhibition reference
# Test system: P. falciparum stage V gametocytes
# Parameters: BacTiter-Glo ATP luminescence viability of purified stage V gametocytes in 384-well plates, per cent inhibition versus DMSO
# conditions: 48 h, 5 µM; inhibitor
Out of some 13,000 compounds screened, about 3,200 (25%) showed an effect of 50% or more. Some of the results follow.
Output spec: scalar in %, unitless text.

In: Any idea what its % Inhibition is? The compound is O=C(NCCCCN1CCC(c2ccc3c(c2OCCCO)CCCC3)CC1)c1ccc(-c2ccc(C(F)(F)F)cc2)c(CO)c1 [TCMDC-138741]
Out: 72.16

###

# Tested on: P. falciparum stage V gametocytes
# Design: BacTiter-Glo ATP luminescence viability of purified stage V gametocytes in 384-well plates, per cent inhibition versus DMSO
# conditions: 48 h, 5 µM; inhibitor
Among all 13,000 compounds or so, about 3,200 (25%) showed an effect of 50% or more. Some of the results follow.
% Inhibition reference
Output spec: scalar in %, unitless text.

For orientation, consider the following solved cases.
| compound | unitAbbrev | value |
| --- | --- | --- |
| Cc1cccc(CN2CCC(Oc3ccc(NC(=O)c4cccs4)cc3Cl)CC2)n1 [TCMDC-133964] | % | 24.07 |
| N#Cc1ccc(N(CCOC(=O)c2ccc(Br)s2)Cc2ccccc2C(F)(F)F)cc1C(F)(F)F [TCMDC-135739] | % | 59.47 |
| O=C(c1cc(-c2cccs2)[nH]n1)N1CCN(S(=O)(=O)c2ccc(Cl)cc2)CC1 [TCMDC-124702] | % | 54.51 |
| O=C(c1cc(-c2ccco2)[nH]n1)N1CCN(S(=O)(=O)c2ccc(Br)cc2)CC1 [TCMDC-124699] | % | -28.22 |
| CN(C)c1cccc(CN2CC=C(c3c[nH]c4ccc(Cl)cc34)CC2)c1 [TCMDC-138946] | % | 8.82 |

In: Any idea what its % Inhibition is? The compound is O=C(Nc1cccc(-c2nn3ccccc3c2-c2ccnc(Nc3cccc(F)c3)n2)c1)c1c(F)ccc(F)c1F [TCMDC-135844]
Out: -56.6

In: What do we get for N#Cc1ccc(N(CCCO)Cc2ccccc2C(F)(F)F)cc1C(F)(F)F [TCMDC-134689] ?
Out: 3.655

In: What do we get for N#Cc1ccc(OCCN(Cc2ccccc2C(F)(F)F)c2ccc(C#N)c(C(F)(F)F)c2)cc1 [TCMDC-132799] ?
Out: 28.83

###

# Test system: P. falciparum stage V gametocytes
# Design: BacTiter-Glo ATP luminescence viability of purified stage V gametocytes in 384-well plates, per cent inhibition versus DMSO
# conditions: 48 h, 5 µM; inhibitor
The campaign covered roughly 13,000 compounds. About 3,200 (25%) showed an effect of 50% or more. This is one part of the list.
% Inhibition reference
Output spec: scalar in %, unitless text.

For orientation, consider the following solved cases.
| structureSmilesString | unitAbbrev | % Inhibition |
| --- | --- | --- |
| CC1(C)N=C(N)N=C(N)N1c1ccc(I)cc1 | % | 5.763 |
| Cc1cccc2nc(-c3cccc(-c4cccc(CNCCc5cccn5C)c4)c3)[nH]c12.O=C(O)C(F)(F)F | % | -19.68 |
| Cc1cccc2nc(-c3cccc(-c4ccc(CNCCCN5CCCC5=O)cc4)c3)[nH]c12.O=C(O)C(F)(F)F | % | 7.956 |
| O=C(NCCc1ccccc1)N(Cc1cccc(-c2ccc(CNCc3ccc4c(c3)OCO4)cc2)c1)C1CCN(Cc2ccccc2)CC1 | % | 40.48 |
| O=C(NC1CCCCC1)N(Cc1ccc(-c2ccc(CNCc3ccc4c(c3)OCO4)cc2)cc1)C1CCN(Cc2ccccc2)CC1 | % | 57.56 |

In: Any idea what its % Inhibition is? The molecule is CC(=O)N[C@@H]1c2cc(C(C)=O)ccc2OC(C)(C)[C@@H]1O
Out: 15.15

In: What do we get for Cc1cccc2nc(-c3ccc(-c4ccc(C(=O)NCCN5CCCC5)cc4)cc3)[nH]c12 ?
Out: 6.886

###

% Inhibition reference
# System: P. falciparum stage V gametocytes
# Design: BacTiter-Glo ATP luminescence viability of purified stage V gametocytes in 384-well plates, per cent inhibition versus DMSO
# conditions: 48 h, 5 µM; inhibitor
About 3,200 (25%) of roughly 13,000 compounds showed an effect of 50% or more. The list shows a part of the results.
Output spec: scalar in %, unitless text.

| compound | value |
| --- | --- |
| O=C(/C=C/c1ccc(Cl)c(Cl)c1)NCCCCCN1CCC(NC(=O)c2ccc(F)cc2)CC1 [TCMDC-135840] | 0.6546 |
| C=CCc1cccc(C)c1OCCCON1C(N)=NC(N)=NC1(C)C [TCMDC-131307] | 8.677 |
| CCOc1c(CNCCCNc2cc(=O)c3ccccc3[nH]2)cc(I)cc1C(C)(C)C [TCMDC-140132] | -43.73 |

In: Any idea what its % Inhibition is? The compound is C=CCn1c(SCc2c(C)noc2C)nc2scc(-c3cccs3)c2c1=O [TCMDC-125027]
Out: -8.905

In: What do we get for CCNCc1ccc(-c2cccc(-c3nc4ccccc4[nH]3)c2)cc1 [TCMDC-132568] ?
Out: 85.38

In: What do we get for CC1(C)N=C(N)N=C(N)N1OCCc1ccc2ccccc2c1 [TCMDC-131755] ?
Out: -0.2663

In: What do we get for c1ccc(CNCc2ccc(-c3cccc(-c4nc5ccccc5[nH]4)c3)cc2)cc1 [TCMDC-132545] ?
Out: 18.29

In: What do we get for N#Cc1ccc(NC(=O)NC2CCN(CCCCCNC(=O)/C=C/c3ccc(Cl)c(Cl)c3)CC2)cc1 [TCMDC-135705] ?
Out: -23.68

In: What do we get for N#Cc1ccc(C(=O)NC2CCN(CCCCCNC(=O)/C=C/c3ccc(Cl)c(Cl)c3)CC2)cc1 [TCMDC-135837] ?
Out: 78.66

In: What do we get for CC(C)NCc1cccc(-c2ccc(-c3nc4ccccc4[nH]3)cc2)c1 [TCMDC-132746] ?
Out: 23.3

In: What do we get for COc1ccc(-c2cnc(N)c(-c3nc4ccc(Br)cc4[nH]3)c2)cc1 [TCMDC-133074] ?
Out: -6.966

In: What do we get for CN(C)CCNCc1ccc(-c2cccc(-c3nc4ccccc4[nH]3)c2)cc1 [TCMDC-132539] ?
Out: 20.35
